experiment: Unbound fraction (fu) in mouse plasma; assay type: in vitro ADME

{"COMPOUND": "NC(=O)C1CCN(c2ncccc2CNCc2cccc3[nH]ccc23)CC1 [Compound 22]", "fraction unbound": 0.547}

====

experiment: Mouse pharmacokinetics, IV administration; type: in vivo; details: mouse, plasma; IV 3 mg/kg; extrapolation to infinity, approximation only; read-out: Plasma AUC0-inf
READOUT: AUC(0-inf) (nM·h)

{"SAMPLE_SMILES": "NC(=O)C1CCN(c2ncccc2CNCc2cccc3[nH]ccc23)CC1", "REPORTED": 1620}

====

assay: Mouse pharmacokinetics, IP administration; format: in vivo; conditions: mouse, plasma; IP 10 mg/kg, male C57BL/6 mice
READOUT: Tmax

{"COMPOUND": "NC(=O)C1CCN(c2ncccc2CNCc2cccc3[nH]ccc23)CC1 [Compound 22]", "REPORTED": "15 min"}
